# Test system: IL-5 production of mouse T cell strain EL-4 (TPA)
# testProtocol: Suppressive effect on the cytokine production of mouse T cell strain EL-4: IL-5
# Format: cell-based
# reportedConditions: EL-4, TPA 10 ng/ml, 24 hours, ELISA
Please respond with reported IC50 IL-5 for every item in the list.

[
  {
    "smilesData": "COC(=O)c1ccc(-c2cc(OC)c(-c3ccc(OCc4ccccc4)c(O)c3)c(O)c2OC)cc1",
    "targetUnderTest": "IL-5 production of mouse T cell strain EL-4 (TPA)",
    "IC50 IL-5": "0.1 µg/mL"
  },
  {
    "smilesData": "COc1cc(-c2ccc(OS(C)(=O)=O)cc2)c(OC)c(OS(C)(=O)=O)c1-c1cc(C=O)c(OCC=C(C)C)c(OS(C)(=O)=O)c1",
    "targetUnderTest": "IL-5 production of mouse T cell strain EL-4 (TPA)",
    "IC50 IL-5": "0.45 µg/mL"
  },
  {
    "smilesData": "COc1cc(-c2ccc(OS(C)(=O)=O)cc2)c(OC)c(OS(C)(=O)=O)c1-c1ccc(OS(=O)(=O)c2ccc(C)cc2)c(OS(C)(=O)=O)c1",
    "targetUnderTest": "IL-5 production of mouse T cell strain EL-4 (TPA)",
    "IC50 IL-5": ">1 µg/mL"
  },
  {
    "smilesData": "COc1cc(-c2ccc(OS(C)(=O)=O)cc2)c(OC)c(OS(C)(=O)=O)c1-c1ccc(OCCC=C(C)C)cc1",
    "targetUnderTest": "IL-5 production of mouse T cell strain EL-4 (TPA)",
    "IC50 IL-5": "0.04 µg/mL"
  },
  {
    "smilesData": "COc1cc(-c2ccc(O)cc2)c(OC)c(O)c1-c1ccc(OCC=NNC(N)=O)c(O)c1",
    "targetUnderTest": "IL-5 production of mouse T cell strain EL-4 (TPA)",
    "IC50 IL-5": "0.28 µg/mL"
  }
]

Hey, quick one: what's IC50 IL-5 for each of these?
1. COc1cc(-c2ccc(OS(C)(=O)=O)cc2)c(OC)c(OS(C)(=O)=O)c1-c1ccc(OCc2ccc3ccccc3n2)c(OS(C)(=O)=O)c1
2. COc1cc(-c2ccc(F)cc2)c(OC)c(C=O)c1-c1ccc(OCC=C(C)C)c(F)c1

**A:**
1: 0.023 µg/mL; 2: >1 µg/mL

---

# Test system: C3H/HeN mouse splenocytes stimulated with Concanavalin A (Con A)
# testProtocol: Suppressive effect on mitogenic activity of mouse splenocytes in vitro, Con A as mitogen (MTT)
# Format: cell-based
# reportedConditions: Con A 5 μg/ml as mitogen, 3 days
Would you mind telling me the reported ConA IC50 of each entry?
Answers are plain numbers, in µg/mL.

[
  {
    "compound": "COc1cc(-c2ccc(NCC=C(C)C)c(F)c2)c(OC)cc1-c1ccc(N(C)C)cc1 [Compound I-484]",
    "unitLabel": "µg/mL",
    "ConA IC50": 0.0147
  },
  {
    "compound": "COc1cc(-c2ccc(O)cc2)c(OC)c(O)c1-c1ccc(OC/C=C/Br)c(O)c1 [Compound I-103]",
    "unitLabel": "µg/mL",
    "ConA IC50": 0.0034
  }
]

For each of the compounds below, note its ConA IC50.
1. COc1cc(-c2ccc(O)cc2)c(OC)c(CO)c1-c1ccc(OCC=C(C)C)c(OS(C)(=O)=O)c1 [Compound I-12]
2. COc1cc(-c2ccc(OCc3ccccc3)c(O)c2)c(OC)cc1-c1ccc(OCc2ccccc2)c(O)c1 [Compound I-63]

**A:**
[0.0013, 0.013]

---

# System: C3H/HeN mouse splenocytes stimulated with Concanavalin A (Con A)
# testProtocol: Suppressive effect on mitogenic activity of mouse splenocytes in vitro, Con A as mitogen (MTT)
# Type: cell-based
# reportedConditions: Con A 5 μg/ml as mitogen, 3 days
Field: ConA IC50. Provide a value for each of the molecules that follow.
Numbers only, in ng/mL.

[
  {
    "molecule": "C/C=C\\COc1ccc(-c2c(OC)cc(-c3ccc(O)cc3)c(OC)c2O)cc1O [Compound I-50]",
    "ConA IC50, ng/mL": 3.83
  },
  {
    "molecule": "COc1cc(-c2ccc(OCC=C(C)C)c(O)c2)c(OC)cc1-c1ccc(OCC=C(C)C)c(O)c1 [Compound I-66]",
    "ConA IC50, ng/mL": 0.22
  }
]

// sample COc1cc(-c2ccc(O)cc2)c(OC)c(O)c1-c1ccc(OC/C=C(/C)CO)c(O)c1 [Compound I-299] , its ConA IC50 was 5.53

---

# Test system: C3H/HeN mouse splenocytes stimulated with Concanavalin A (Con A)
# testProtocol: Suppressive effect on mitogenic activity of mouse splenocytes in vitro, Con A as mitogen (MTT)
# Assay type: cell-based
# reportedConditions: Con A 5 μg/ml as mitogen, 3 days
observationType: ConA IC50 (ng/mL)
Give bare numbers, in ng/mL.

[
  {
    "compound": "C=CCOc1ccc(-c2c(OC)cc(-c3ccc(O)cc3)c(OC)c2O)cc1O [Compound I-46]",
    "endpointValue": 10.6
  },
  {
    "compound": "COc1cc(-c2ccc3c(c2)OCO3)c(OC)c(O)c1-c1ccc(OCC=C(C)C)c(O)c1 [Compound I-62]",
    "endpointValue": 29.2
  },
  {
    "compound": "COc1ccccc1-c1cc(OC)c(-c2ccc(OCC=C(C)C)c(O)c2)c(O)c1OC [Compound I-276]",
    "endpointValue": 1.8
  },
  {
    "compound": "COCOc1c(OC)c(-c2ccc(OC)cc2)cc(OC)c1-c1ccc(OCc2ccccc2)c(O)c1 [Compound I-107]",
    "endpointValue": 0.6
  },
  {
    "compound": "COc1cc(-c2ccc(O)cc2)c(OC)c(O)c1-c1ccc(OCC=C(C)Cl)c(O)c1 [Compound I-41]",
    "endpointValue": 0.73
  }
]

For the next question, use this compound.
Looking up CC#CCOc1ccc(-c2c(OC)cc(-c3ccc(O)cc3)c(OC)c2O)cc1O [Compound I-40] , I found its ConA IC50 recorded as 6.1

---

# Test system: IL-2 production of mouse T cell strain EL-4 (TPA)
# testProtocol: Suppressive effect on the cytokine production of mouse T cell strain EL-4: IL-2
# Format: cell-based
# reportedConditions: EL-4, TPA 10 ng/ml, 24 hours, ELISA
observationType: IC50 IL-2

These solved cases illustrate the format of a correct answer.
[
  {
    "smilesData": "COc1cc(-c2ccc(OCC=C(C)C)c(F)c2)c(OC)cc1-c1ccc(O)cc1",
    "targetUnderTest": "IL-2 production of mouse T cell strain EL-4 (TPA)",
    "IC50 IL-2": "0.5 µg/mL"
  },
  {
    "smilesData": "COc1cc(-c2ccc(OS(C)(=O)=O)cc2)c(OC)c(OS(C)(=O)=O)c1-c1ccc(OCc2ccccc2)c(C(N)=O)c1",
    "targetUnderTest": "IL-2 production of mouse T cell strain EL-4 (TPA)",
    "IC50 IL-2": ">10 µg/mL"
  },
  {
    "smilesData": "COc1cc(-c2ccc(OS(C)(=O)=O)cc2)c(OC)c(OS(C)(=O)=O)c1-c1ccc(OCc2ccc(C(C)C)cc2)c(OS(C)(=O)=O)c1",
    "targetUnderTest": "IL-2 production of mouse T cell strain EL-4 (TPA)",
    "IC50 IL-2": ">1 µg/mL"
  }
]

Provide IC50 IL-2 values for the following items, in order.
1. COC(=O)c1ccc(-c2cc(OC)c(-c3ccc(OCc4ccccc4)c(O)c3)c(O)c2OC)cc1
2. COc1cc(-c2ccc(O)cc2)c(OC)c(O)c1-c1ccc(OC/C=C(\C)CCC=C(C)C)c(O)c1
3. COc1cc(-c2ccc(O)cc2)c(OC)c(O)c1-c1ccc(OCC(C)=C(C)C)c(O)c1
4. COc1cc(-c2ccc(OS(C)(=O)=O)cc2)c(OC)c(OS(C)(=O)=O)c1-c1ccc(OCc2ccccc2)c(C=O)c1

**A:**
1: >0.1 µg/mL; 2: >0.5 µg/mL; 3: >1 µg/mL; 4: >10 µg/mL

---

# Test system: mouse thymoma strain EL4 cells
# testProtocol: Anti-proliferative activity on EL4 cells (MTT)
# Assay type: cell-based
# reportedConditions: 3 days
Threshold rule: EL-4 IC50 greater than or equal to 0.03 µg/mL is true (1); below that, false (0).

Past entries and their recorded results:
[
  {
    "molecule": "COc1cc(-c2ccc(O)cc2)c(OC)c(O)c1-c1ccc(OCc2ccco2)c(O)c1 [Compound I-211]",
    "label": "false (0)"
  },
  {
    "molecule": "COc1cc(-c2c(OC)cc(-c3ccc(O)cc3)c(OC)c2CO)ccc1OCC=C(C)C [Compound I-513]",
    "label": "true (1)"
  },
  {
    "molecule": "COc1cc(-c2ccc(O)cc2)c(OC)c(CO)c1-c1ccc(OCC=C(C)C)c(OS(C)(=O)=O)c1 [Compound I-12]",
    "label": "true (1)"
  }
]

**Q:** Does EL-4 IC50 meet or surpass 0.03 µg/mL for COc1cc(-c2ccc(O)cc2)c(OC)c(C)c1-c1ccc(OCC=C(C)C)c(O)c1 [Compound I-106] ?
**A:** false (0)
